Quick list: GI50 per entry.
- System: Malme-3M
- Measurement protocol: NCI tumour cell line growth inhibition, 48 h
Calls of active or inactive are those of the source. No stated cut-off is given here; in the data, active = GI50 up to about 1.1 µM and inactive = higher.

Examples with answers:
CC(C)=CCC/C(C)=C/Cc1cc(/C=C/c2cc(O)c(CC=C(C)C)c(O)c2)cc(O)c1O | 6.38 µM (inactive)
COc1ccc(NC(=O)CC/C(CC(=O)c2ccco2)=N/Nc2ccc([N+](=O)[O-])cc2[N+](=O)[O-])cc1 | > 100 µM (inactive)
O=S1(=O)C[C@H](O)[C@H](O)CS1 | > 100 µM (inactive)
O=C(CCc1nnc2s/c(=C\c3ccccc3)c(=O)n12)Nc1cc(Cl)ccc1Cl | > 100 µM (inactive)

Input CN(C)c1ccc(-c2cc(O)c3ccccc3n2)cc1 . Output GI50: > 100 µM (inactive)

Input COC(=N)/C(=C1\OC(=N)C(c2ccc(Cl)cc2)=C1O)c1ccc(Cl)cc1 . Output GI50: > 100 µM (inactive)

Input COc1cc2c[n+]3c4c(c2c(OC)c1OC)CCCC4CC3 (centres undefined) . Output GI50: 15.5 µM (inactive)

Input C/C=C1/C=CC2c3[nH]c4ccccc4c3CCN2C1 (centres undefined) . Output GI50: > 400 µM (inactive)

Input C/C=C/C1OC(O)(C(C)C(O)[C@H](C)C2OC(=O)/C(OC)=C/C(C)=C/[C@@H](C)[C@@H](O)[C@@H](C)C(O)C(C)C/C(C)=C/C=C/C2OC)C[C@@H](OC2CC(O)C(OC(N)=O)C(C)O2)C1C (some centres undefined) . Output GI50: < 0.01 µM (active)

----------
- Tested on: SK-MEL-28
- Measurement protocol: NCI tumour cell line growth inhibition, 48 h
Activity calls are given as the source filed them. No stated cut-off is given here; in the data, active = GI50 up to about 1.1 µM and inactive = higher. Bridge positions count the residues as written; N and C are the ends. Square brackets hold non-standard residues; d marks the D form. Peptide text beside a SMILES is read from it. * marks the point of attachment. Cya = N[CH](CS(=O)(=O)O)C(=O)O; X49 = CC(C)CCCCCCCC(O)CC(=O)*; GABA = NCCCC(=O)O
Quick list: GI50 per entry.

CC(=O)OC1CCn2c1nc1cc([N+](=O)[O-])c(C)cc12 (stereo not given) | > 100 µM (inactive)
COc1cccc(/N=N/C(=N/NC(=O)c2ccc(C)cc2)c2ccc(N(CCC#N)CCC#N)cc2OC)c1 | > 100 µM (inactive)
NC(Cc1ccc(OCc2ccccc2)cn1)C(=O)O (stereo not given) | > 100 µM (inactive)
CCOC(=O)Cn1c(=O)c2nc(SC)sc2n(-c2ccc(C)cc2)c1=S | > 100 µM (inactive)
O=C(CC(C(=O)c1ccsc1)c1ccccc1)c1cccs1 (stereo not given) | > 100 µM (inactive)

Input CCC(C)c1cccc(C)c1NC(=O)C(=O)Cc1nc2ccccc2s1 (stereo not given) . Output GI50: > 100 µM (inactive)

Input Cc1cc(=O)oc2cc(OCc3c(F)cccc3Cl)ccc12 . Output GI50: > 100 µM (inactive)

Input CN(c1ccccc1Cl)S(=O)(=O)c1ccccc1[N+](=O)[O-] . Output GI50: 39.6 µM (inactive)

Input COC(=O)C1[C@H](c2cc(OC)c(OC)c(OC)c2)OC(=O)C1(C(=O)OC)C(=O)c1ccc2c(c1)OCO2 (stereo not given in full) . Output GI50: > 100 µM (inactive)

Input CC(C)CNC(=O)O . Output GI50: > 100 µM (inactive)

Input CC(C)CCCCCCCC(O)CC(=O)NC(CS(=O)(=O)O)C(=O)NC(CC(C)C)C(=O)NCCCC(=O)NC(Cc1c[nH]cn1)C(=O)NC(C)C(=O)NC1C(=O)NC(C(C)O)C(=O)NC(Cc2c[nH]cn2)C(=O)NC(C)C(=O)NC(C(C)O)C(=O)OC1C (stereo not given) (X49-[Cya]L[GABA]HATTHAT; ester 6-C; configuration not given here) . Output GI50: > 25 µM (inactive)

Input N#CC12CC3(CCC1CCC1(C2)OCCO1)OCCO3 (stereo not given) . Output GI50: > 100 µM (inactive)

----------
- Tested on: SK-MEL-2
- Measurement protocol: NCI tumour cell line growth inhibition, 48 h
Active and inactive are the calls of the source. No stated cut-off is given here; in the data, active = GI50 up to about 1.1 µM and inactive = higher.
Quick list: GI50 per entry.

COc1cc2c[n+]3c4c(c2c(OC)c1OC)CCCC4CC3 (stereo unspecified) | > 100 µM (inactive)
Cc1nc(N)c(N2CCN(Cc3ccccc3)CC2)c(O)n1 | > 100 µM (inactive)
Cn1cnc([N+](=O)[O-])c1Sc1ccccn1 | 74.6 µM (inactive)

Input O=C(CCc1nnc2s/c(=C\c3ccccc3)c(=O)n12)Nc1cc(Cl)ccc1Cl . Output GI50: > 100 µM (inactive)

Input CC(=O)C1=C(O)/C(=C\c2ccco2)OC1=O . Output GI50: > 10 µM (inactive)

Input CC(C)(C)[C@H]1CO[C@]2(C)[C@@H]3C[C@@H]3C(=O)N12 . Output GI50: > 100 µM (inactive)

Input Cc1cn(C2CC(OC(c3ccccc3)(c3ccccc3)c3ccccc3)C(COC(c3ccccc3)(c3ccccc3)c3ccccc3)O2)c(=O)[nH]c1=O (stereo unspecified) . Output GI50: 23.7 µM (inactive)

Input N#Cc1c(NC(=S)Nc2ccc(Cl)cc2)sc2c1CCCC2 . Output GI50: > 100 µM (inactive)

Input CCC(=O)Nc1ncnc2ncn(C(=O)CC)c12 . Output GI50: > 100 µM (inactive)

Input CN1CCc2c1nc(-c1cccnc1)c1c2N(C)CC1 . Output GI50: > 100 µM (inactive)

Input Cc1nc2c(C)ccc([N+](=O)[O-])c2c(NCCCN(C)C)c1C . Output GI50: > 44.6 µM (inactive)

----------
- Tested on: IGROV-1
- Measurement protocol: NCI tumour cell line growth inhibition, 48 h
The source made the active and inactive calls. Cut-off read from the data, not from the text of the source: active = GI50 up to about 1.1 µM and inactive = higher.
# output must be one of active, inactive

Here are 6 molecules together with their reported answers.
CC[C@](O)(CC(=O)O[C@H]1C(=O)O[C@@H]2C[C@H]3C(C)=CC(=O)[C@@H](O)[C@]3(C)[C@H]3[C@@]4(O)OC[C@]32[C@@H]1[C@@H](C)[C@H]4O)C(C)C | active
CCOC(=O)Cn1c(=O)c2nc(SC)sc2n(-c2ccc(C)cc2)c1=S | inactive
OCC1CCC(n2cnc3c(O)ncnc32)O1 (centres undefined) | inactive
CC(C)(C)OC(=O)N(CCCCNC(=O)OCc1ccccc1)CCCNC(=O)OCc1ccccc1 | inactive
CCCCCCCCCCCCCS(=O)(=O)NCC(N)=O | inactive
COc1ccc(OC)c(NC(=O)C2=C(C)NC(C)=C(C(=O)Nc3cc(OC)ccc3OC)C2c2ccccc2)c1 | inactive

Prompt: How did this test come out for COc1ccc(C2NC(c3ccc(OC)cc3)C(C)C(=O)C2C)cc1 (centres undefined) ?
Response: inactive

Prompt: How did this test come out for O=C(c1ccccc1)c1ccc2c(c1)NC(=O)c1ccccc1SSc1ccccc1C(=O)N2 ?
Response: inactive

Prompt: How did this test come out for O=C(Nc1nc2c(ncn2C2OC(CO)C(O)C2O)c(=O)[nH]1)c1ccccc1 (centres undefined) ?
Response: inactive

----------
- Tested on: HL-60
- Measurement protocol: NCI tumour cell line growth inhibition, 48 h
Active and inactive are the calls of the source. Cut-off read from the data, not from the text of the source: active = GI50 up to about 1.1 µM and inactive = higher.
Readout type: GI50

O=C(CC(C(=O)c1ccsc1)c1ccccc1)c1cccs1 (stereo unspecified) | 41.1 µM (inactive)

Recorded GI50 for CCn1c2c(c3ccccc3c1=O)C(=O)c1ccccc1-2 on HL-60 was > 100 µM (inactive)

Recorded GI50 for Nc1nc(O)c([I+]c2ccccc2)c(=O)[nH]1 on HL-60 was > 100 µM (inactive)

Recorded GI50 for OCC1CCC(n2cnc3c(O)ncnc32)O1 (stereo unspecified) on HL-60 was > 100 µM (inactive)

Recorded GI50 for CC1(C)CCCCCC(C)(CCCO)C1=O (stereo unspecified) on HL-60 was > 100 µM (inactive)

Recorded GI50 for CCSC1(SCC)CC(Cc2ccc(OC)cc2)N(/C=N/C(C)(C)C)C1 (stereo unspecified) on HL-60 was 10.6 µM (inactive)

Recorded GI50 for O=C(c1ccccc1)c1c(C(=O)c2ccccc2)c(-c2ccccc2)c2c(-c3ccccc3)sc(-c3ccccc3)c2c1-c1ccccc1 on HL-60 was > 100 µM (inactive)

Recorded GI50 for COC(=O)c1ccccc1C1CN=NC12Cc1cc(C)ccc1C2=O (stereo unspecified) on HL-60 was 92.7 µM (inactive)

Recorded GI50 for CC(=O)OCC1OC(OC(C)=O)C(NC#N)C(OC(C)=O)C1OC(C)=O (stereo unspecified) on HL-60 was > 100 µM (inactive)

Recorded GI50 for O=C1CC(C2(O)C(=O)Nc3ccc([N+](=O)[O-])cc32)c2ccccc21 (stereo unspecified) on HL-60 was 14.8 µM (inactive)

Recorded GI50 for COc1cc2cnc3c4cc(O)ccc4ccc3c2cc1OC on HL-60 was 33.2 µM (inactive)
